- Test system: Trypanosoma brucei rhodesiense
- test-protocol: Antitrypanosomal activity against pentamidine-resistant Trypanosoma brucei rhodesiense STIB900 by Alamar blue assay
- Format: functional, organism-based
Labelling: IC50 reported below 0.03 µg/mL becomes Criterion met; at or above becomes Criterion not met.

molecule: N=C(N)c1ccc(-c2ccc(-c3ccc(C(=N)N)cn3)o2)cc1
group-label: Criterion met

molecule: Nc1nc(N)nc(Nc2ccc([As]3SCC(CO)S3)cc2)n1 (stereo not given)
group-label: Criterion met

molecule: N=C(N)c1ccc(OCCCCCOc2ccc(C(=N)N)cc2)cc1
group-label: Criterion not met

molecule: N=C(N)c1ccc(-c2ccc(-c3ccc(C(=N)N)cn3)o2)nc1
group-label: Criterion not met

molecule: N=C(N)c1ccc(-c2ccc(-c3ccc(C(=N)N)cc3)o2)cc1
group-label: Criterion met

* * *

- Tested on: Trypanosoma brucei rhodesiense
- test-protocol: Antitrypanosomal activity against wild-type Trypanosoma brucei rhodesiense STIB900 infected in NMRI mouse assessed as cure from infection at 25 mg/kg, po for 4 days
- Type: functional, organism-based
- Design: dose 25 mg/kg
Activity calls are given as the source filed them. The rule behind the calls is not given here.

smiles-representation: CO/N=C(/N)c1ccc(-c2ccc(-c3ccc(/C(N)=N/O)cn3)o2)nc1
Activity: Active

smiles-representation: CO/N=C(\N)c1ccc(-c2ccc(-c3ccc(/C(N)=N\O)cn3)o2)cc1
Activity: Active

smiles-representation: CO/N=C(/N)c1ccc(-c2ccc(-c3ccc(/C(N)=N/O)cc3)o2)nc1
Activity: Active

smiles-representation: CONC(=N)c1ccc(-c2ccc(-c3ccc(C(=N)NOC)cc3)o2)cc1
Activity: Active

smiles-representation: CO/N=C(\N)c1ccc(-c2ccc(-c3ccc(/C(N)=N/OC)cn3)o2)cc1
Activity: Active

* * *

- Test system: Trypanosoma brucei rhodesiense
- test-protocol: Antitrypanosomal activity against melasoprol-resistant Trypanosoma brucei rhodesiense STIB900 by Alamar blue assay
- Type: functional, organism-based
readout: IC50 (µg/mL)

compound: N=C(N)c1ccc(-c2ccc(-c3ccc(C(=N)N)cn3)o2)cc1
value: 0.0292
--
compound: N=C(N)c1ccc(-c2ccc(-c3ccc(C(=N)N)cn3)o2)nc1
value: 0.0643
--
compound: Nc1nc(N)nc(Nc2ccc([As]3SCC(CO)S3)cc2)n1 (stereo not given)
value: 0.0567
--
compound: N=C(N)c1ccc(OCCCCCOc2ccc(C(=N)N)cc2)cc1
value: 0.124
--
compound: N=C(N)c1ccc(-c2ccc(-c3ccc(C(=N)N)cc3)o2)cc1
value: 0.019
